Molecular target: T1, α5β1 integrin isolated from human placental extract (human, UniProt P08648 42-1049; P05556 21-798)
T1 construct: coated on plastic wells or captured by anti-α5 antibody; also called fibronectin receptor
T1 sequence (P08648 42-1049, chain 1 of 2): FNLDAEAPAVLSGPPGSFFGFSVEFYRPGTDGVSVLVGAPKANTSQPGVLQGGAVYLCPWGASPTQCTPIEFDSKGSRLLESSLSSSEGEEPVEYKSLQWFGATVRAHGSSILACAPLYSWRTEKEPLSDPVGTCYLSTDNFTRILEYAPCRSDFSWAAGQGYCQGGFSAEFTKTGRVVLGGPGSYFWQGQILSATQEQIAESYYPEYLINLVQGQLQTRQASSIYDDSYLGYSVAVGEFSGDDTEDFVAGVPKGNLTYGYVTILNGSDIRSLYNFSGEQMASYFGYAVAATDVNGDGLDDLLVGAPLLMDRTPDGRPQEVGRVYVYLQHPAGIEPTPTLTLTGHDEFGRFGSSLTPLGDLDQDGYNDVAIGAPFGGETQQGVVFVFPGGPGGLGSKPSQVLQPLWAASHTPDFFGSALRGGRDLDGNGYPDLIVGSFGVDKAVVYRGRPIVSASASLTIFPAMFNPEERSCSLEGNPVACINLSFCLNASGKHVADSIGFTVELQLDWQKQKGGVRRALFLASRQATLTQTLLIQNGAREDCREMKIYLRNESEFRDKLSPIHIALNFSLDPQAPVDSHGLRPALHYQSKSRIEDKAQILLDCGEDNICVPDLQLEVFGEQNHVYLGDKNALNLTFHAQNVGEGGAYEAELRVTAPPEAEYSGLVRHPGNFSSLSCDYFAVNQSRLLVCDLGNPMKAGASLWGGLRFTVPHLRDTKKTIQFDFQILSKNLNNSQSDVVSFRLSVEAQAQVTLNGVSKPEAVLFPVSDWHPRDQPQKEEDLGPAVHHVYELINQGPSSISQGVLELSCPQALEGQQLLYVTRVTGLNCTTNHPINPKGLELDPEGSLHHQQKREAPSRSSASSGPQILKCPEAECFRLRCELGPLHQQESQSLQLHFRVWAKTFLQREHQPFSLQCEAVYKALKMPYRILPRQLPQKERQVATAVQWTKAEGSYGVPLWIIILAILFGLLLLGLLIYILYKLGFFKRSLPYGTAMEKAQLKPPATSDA
T1 sequence (P05556 21-798, chain 2 of 2): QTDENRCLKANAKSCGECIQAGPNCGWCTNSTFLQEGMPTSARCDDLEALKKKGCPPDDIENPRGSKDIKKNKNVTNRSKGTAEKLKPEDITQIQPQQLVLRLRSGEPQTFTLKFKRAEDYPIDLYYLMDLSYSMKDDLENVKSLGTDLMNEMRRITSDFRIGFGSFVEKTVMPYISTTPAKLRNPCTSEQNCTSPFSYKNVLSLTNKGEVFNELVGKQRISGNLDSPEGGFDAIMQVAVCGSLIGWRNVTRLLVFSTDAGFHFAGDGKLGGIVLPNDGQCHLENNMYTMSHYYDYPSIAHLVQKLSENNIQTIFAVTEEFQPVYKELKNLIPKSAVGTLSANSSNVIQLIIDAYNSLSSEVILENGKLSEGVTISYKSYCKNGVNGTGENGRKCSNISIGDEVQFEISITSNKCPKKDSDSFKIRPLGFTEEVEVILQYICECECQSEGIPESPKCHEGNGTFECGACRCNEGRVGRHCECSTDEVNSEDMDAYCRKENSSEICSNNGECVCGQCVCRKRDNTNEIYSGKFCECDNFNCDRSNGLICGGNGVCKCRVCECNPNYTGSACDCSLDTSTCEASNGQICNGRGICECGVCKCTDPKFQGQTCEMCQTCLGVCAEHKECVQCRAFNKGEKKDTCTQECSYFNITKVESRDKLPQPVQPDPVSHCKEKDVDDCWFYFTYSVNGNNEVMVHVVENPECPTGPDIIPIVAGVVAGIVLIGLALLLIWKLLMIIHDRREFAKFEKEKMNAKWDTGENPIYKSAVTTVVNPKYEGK
Assay: phage panning on coated integrin
MEASURED PARAMETER: binding result

Here's what some known entries look like.
{"BINDER": "SCRRETQWHC (on fuse 5 phage, fused to pIII) [SCRRETQWHC phage]", "binding result": "binds"}
{"BINDER": "GCRRETEWAC (on fuse 5 phage, fused to pIII) [GCRRETEWAC phage]", "binding result": "binds"}
{"BINDER": "CRRETAWAC (on fuse 5 phage, fused to pIII) [CRRETAWAC phage]", "binding result": "binds"}
{"BINDER": "VCRKETAWAC (on fuse 5 phage, fused to pIII) [VCRKETAWAC phage]", "binding result": "binds"}
{"BINDER": "YCRPETAWAC (on fuse 5 phage, fused to pIII) [YCRPETAWAC phage]", "binding result": "binds"}

// query Hello, please tell me recorded binding result for this one: GCRKETAWAC (on fuse 5 phage, fused to pIII) [GCRKETAWAC phage]
// result binds
